TARGET_SYSTEM: Cannabinoid receptor 1 (Homo sapiens)
Sequence (P21554 whole entry): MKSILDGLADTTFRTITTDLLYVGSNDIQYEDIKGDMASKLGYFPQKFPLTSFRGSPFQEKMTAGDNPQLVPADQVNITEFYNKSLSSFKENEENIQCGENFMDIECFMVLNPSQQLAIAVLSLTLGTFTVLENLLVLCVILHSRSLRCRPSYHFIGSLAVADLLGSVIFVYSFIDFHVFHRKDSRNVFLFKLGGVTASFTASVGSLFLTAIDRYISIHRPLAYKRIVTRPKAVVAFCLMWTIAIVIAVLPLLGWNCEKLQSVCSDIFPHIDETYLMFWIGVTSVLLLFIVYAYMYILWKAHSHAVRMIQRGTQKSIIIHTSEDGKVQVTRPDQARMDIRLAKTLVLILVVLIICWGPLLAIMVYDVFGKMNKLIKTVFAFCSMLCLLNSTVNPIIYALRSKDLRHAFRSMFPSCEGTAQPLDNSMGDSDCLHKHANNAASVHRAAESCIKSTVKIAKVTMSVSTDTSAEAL
# note: boundary value 400 nM maps to Criterion not met; Ki below it maps to Criterion met

{"STRUCTURE_SMILES": "CSC(=S)N1CC2(CCCCC2)CS/C1=N\\c1ccc(OC(F)(F)F)cc1", "DISCRETE_LABEL": "Criterion not met"}
{"STRUCTURE_SMILES": "CCOc1ccccc1/N=C1\\SCC2(CCCCC2)CN1C(=S)SC", "DISCRETE_LABEL": "Criterion met"}
{"STRUCTURE_SMILES": "CSC(=S)N1CC2(CCCCC2)CS/C1=N\\c1cccc2c1CCC2", "DISCRETE_LABEL": "Criterion met"}
{"STRUCTURE_SMILES": "COc1ccccc1/N=C1\\SCC2(CCCCC2)CN1C(=S)SC", "DISCRETE_LABEL": "Criterion met"}
{"STRUCTURE_SMILES": "CSC(=S)N1CC2(CCCCC2)CS/C1=N\\c1cccc2c1CCCN2C", "DISCRETE_LABEL": "Criterion met"}
{"STRUCTURE_SMILES": "CSC(=S)N1CC2(CCCCC2)CS/C1=N\\c1ccccc1OC(F)(F)F", "DISCRETE_LABEL": "Criterion not met"}

// query is_below(Ki, 400 nM) for "CSC(=S)N1CC2(CCCCC2)CS/C1=N\c1ccc(C(F)(F)F)cc1" ?
// result Criterion not met

// query is_below(Ki, 400 nM) for "CCCc1ccc(/N=C2\SCC3(CCCCC3)CN2C(=S)SC)cc1" ?
// result Criterion not met

// query is_below(Ki, 400 nM) for "CSC(=S)N1CC2(CCCCC2)CS/C1=N\c1cccc2ccccc12" ?
// result Criterion met

// query is_below(Ki, 400 nM) for "CSC(=S)N1CC2(CCCCC2)CS/C1=N\c1ccc(C#N)cc1" ?
// result Criterion met

// query is_below(Ki, 400 nM) for "CSC(=S)N1CC2(CCCCC2)CS/C1=N\c1cccc2ncccc12" ?
// result Criterion not met

// query is_below(Ki, 400 nM) for "CSC(=S)N1CC2(CCCCC2)CS/C1=N\c1ccccc1C(C)C" ?
// result Criterion met

// query is_below(Ki, 400 nM) for "CSC(=S)N1CC2(CCCCC2)CS/C1=N\c1cccc2c1CCCC2" ?
// result Criterion met

// query is_below(Ki, 400 nM) for "COc1ccc(/N=C2\SCC3(CCCCC3)CN2C(=S)SC)cc1" ?
// result Criterion not met

* * *

Overview of recorded clearance for various molecules
TEST_NAME: Total clearance in rat at 2 mg/kg, iv and 30 mg/kg, po
Type: ADME, organism-based
SETTINGS: in vivo
Please give a number only; it is taken to be in mL/min/kg.

# example entries with known answers
{"STRUCTURE_SMILES": "CSC(=S)N1CC2(CCCCC2)CS/C1=N\\c1ccc(OC(F)(F)F)cc1", "OBSERVED_RESULT": 25.9}
{"STRUCTURE_SMILES": "CSC(=S)N1CC2(CCCCC2)CS/C1=N\\c1ccccc1C(C)C", "OBSERVED_RESULT": 38.2}
{"STRUCTURE_SMILES": "CSC(=S)N1CC2(CCCCC2)CS/C1=N\\c1cccc2ccccc12", "OBSERVED_RESULT": 30.1}

Next:
// query State the recorded clearance for this entry: "CSC(=S)N1CC2(CCCCC2)CS/C1=N\c1cccc2c1CCCC2"
// result 23.3

* * *

TEST_NAME: Oral bioavailability in rat at 1 mg/kg
Format: ADME, organism-based
SETTINGS: in vivo
Overview of recorded bioavailability for various compounds
Please give a number only; it is taken to be in %.

# example entries with known answers
{"STRUCTURE_SMILES": "CSC(=S)N1CC(C)(C)CS/C1=N\\c1ccccc1C(C)C", "bioavailability (%)": 10}
{"STRUCTURE_SMILES": "COc1cccc(/N=C2\\SCC3(CCCCC3)CN2C(=S)SC)c1", "bioavailability (%)": 13}
{"STRUCTURE_SMILES": "CSC(=S)N1CC2(CCCCC2)CS/C1=N\\c1ccccc1C(C)C", "bioavailability (%)": 32}
{"STRUCTURE_SMILES": "COc1ccccc1/N=C1\\SCC2(CCCCC2)CN1C(=S)SC", "bioavailability (%)": 0.4}

Next:
// query State the recorded bioavailability for this entry: "CSC(=S)N1CC2(CCCCC2)CS/C1=N\c1ccc(OC(F)(F)F)cc1"
// result 24

* * *

TEST_NAME: Oral bioavailability in rat at 1 mg/kg
Assay type: ADME, organism-based
SETTINGS: in vivo
RECORDED_ENDPOINT: bioavailability
Your answer should be a number followed by the unit of measure.

{"STRUCTURE_SMILES": "CSC(=S)N1CC2(CCCCC2)CS/C1=N\\c1cccc2c1CCCC2", "bioavailability": "44%"}
{"STRUCTURE_SMILES": "CSC(=S)N1CC2(CCCCC2)CS/C1=N\\c1cccc2ncccc12", "bioavailability": "42%"}
{"STRUCTURE_SMILES": "CSC(=S)N1CC2(CCCC2)CS/C1=N\\c1ccccc1C(C)C", "bioavailability": "8.9%"}

// query State the recorded bioavailability for this entry: "CCC1(CC)CS/C(=N\c2ccccc2C(C)C)N(C(=S)SC)C1"
// result 19%

// query State the recorded bioavailability for this entry: "CSC(=S)N1CC2(CC2)CS/C1=N\c1ccccc1C(C)C"
// result 14%

// query State the recorded bioavailability for this entry: "CSC(=S)N1CC2(CCCCC2)CS/C1=N\c1cccc2ccccc12"
// result 53%
